Please go through the items and note down their minimal effective concentration.
# System: Dirofilaria immitis L1 larvae
# TEST NAME: Screening against microfilaria (L1 larvae) of Dirofilaria immitis, survival/motility
# Assay type: in vivo
# RUN CONDITIONS: 72 h, read-out: Ranked D. immitis L1 MED Activity

[Q] Fill blank: measured minimal effective concentration of the compound CN(CC1CN(S(C)(=O)=O)CCC1(F)F)c1cc(N2CCCC3(CCCCC3)C2)nc(C(F)(F)F)n1 (stereo not shown) is ____.
[A] < 30000 µM

[Q] What measured minimal effective concentration goes with CN(CC1CN(S(C)(=O)=O)CCO1)c1cc(N2CCC(F)(F)C3(CCCCC3)C2)nc(C(F)(F)F)n1 (stereo not shown) ?
[A] < 10000 µM

[Q] Looking for the measured minimal effective concentration of CN(CCN1CCCS1(=O)=O)c1cc(N2CCCC3(CCCCC3)C2)nc(C(F)(F)F)n1 , can you help?
[A] < 30000 µM

[Q] Reported minimal effective concentration, compound CN(c1cc(N2CCCC3(CCCCC3)C2)nc(C(F)(F)F)n1)C1CC2(CC(NS(C)(=O)=O)C2)C1 (stereo not shown) : ____
[A] > 100000 µM

[Q] Tell me the measured minimal effective concentration of COC(=O)N1CCCC(CN(C)c2cc(N3CCCC4(CCCCC4)C3)nc(C(F)(F)F)n2)C1 (stereo not shown) , please.
[A] > 100000 µM

[Q] If you can, please state the reported minimal effective concentration value of CN(CCOc1ccccc1)c1cc(N2CCCC3(CCCCC3)C2)nc(C(F)(F)F)n1 .
[A] > 100000 µM

[Q] Return reported minimal effective concentration; argument: CN(CC1CN(S(C)(=O)=O)CCS1(=O)=O)c1cc(N2CCOC3(CCCCC3)C2)nc(C(F)(F)F)n1 (stereo not shown)
[A] > 100000 µM

[Q] Entry CN(Cc1ccc(S(C)(=O)=O)cc1)c1cc(N2CCCC3(CCCCC3)C2)nc(C(F)(F)F)n1 : reported minimal effective concentration = ?
[A] > 100000 µM

[Q] Item under review: CS(=O)(=O)N1CCOC(CNc2cc(N3CCCC4(CCCCC4)C3)nc(C(F)(F)F)n2)C1 (stereo not shown) . Reported minimal effective concentration?
[A] < 10000 µM

[Q] Any idea what its minimal effective concentration is? The compound is CCN(CC1CN(S(C)(=O)=O)CCO1)c1cc(N2CCOC3(CCCCC3)C2)nc(C(F)(F)F)n1 (stereo not shown)
[A] < 10000 µM

[Q] Which minimal effective concentration value is on record for CN(CC1CN(S(C)(=O)=O)CCC1(F)F)c1cc(N2CCOC3(CCCCC3)C2)nc(C(F)(F)F)n1 (stereo not shown) ?
[A] < 10000 µM

[Q] Find the recorded minimal effective concentration belonging to CS(=O)(=O)N1CCOC(CN(Cc2ccccc2)c2cc(N3CCCC4(CCCCC4)C3)nc(C(F)(F)F)n2)C1 (stereo not shown) and report it.
[A] > 100000 µM

[Q] So what does the record say about minimal effective concentration for CN(CC1CN(S(C)(=O)=O)CCS1)c1cc(N2CCOC3(CCCCC3)C2)nc(C(F)(F)F)n1 (stereo not shown) ?
[A] < 30000 µM

[Q] Could you tell me which minimal effective concentration is on file for CCS(=O)(=O)N1CCOC(CN(C)c2cc(N3CCOC4(CCCCC4)C3)nc(C(F)(F)F)n2)C1 (stereo not shown) ?
[A] < 10000 µM

[Q] // lookup minimal effective concentration for CN(CC1CN(S(C)(=O)=O)CCO1)c1cc(N2CC3CCC(C2)O3)nc(C(F)(F)F)n1 (stereo not shown)
[A] > 100000 µM

[Q] Which minimal effective concentration reading was recorded for the compound CN(CC1CN(S(C)(=O)=O)C1)c1cc(N2CCCC3(CCCCC3)C2)nc(C(F)(F)F)n1 ?
[A] < 10000 µM
